# Tested on: Liver microsomes
# METHOD_DESCRIPTION: Metabolic stability in rat liver microsomes at 1 uM
# Assay type: ADME, Microsome
MEASUREMENT_NAME: Stability

| SMILES_DATA | TARGET_UNDER_TEST | Stability |
| --- | --- | --- |
| FC(F)(F)c1ccc(Nc2ncnc3cc(-c4ncccc4C(F)(F)F)ccc23)nc1 | Liver microsomes | Stable |
| CCOCc1nc(Nc2ccc(C(F)(F)F)nc2)c2ccc(-c3ncccc3C(F)(F)F)cc2n1 | Liver microsomes | Stable |
| FC(F)(F)c1ccc(Nc2ncnc3cc(-c4ncccc4C(F)(F)F)ccc23)cn1 | Liver microsomes | Stable |
| CC(C)OCc1nc(Nc2ccc(C(F)(F)F)nc2)c2ccc(-c3ncccc3C(F)(F)F)cc2n1 | Liver microsomes | Stable |

Could you now consider this next molecule?
*Q* Return reported Stability; argument: FC(F)(F)c1ccc(Nc2nc(CN3CCOCC3)nc3cc(-c4ncccc4C(F)(F)F)ccc23)nc1
*A* Stable
